Tested on: LTB4 production in murine blood (LTA4H)
TEST_DETAILS: LTB4 production by calcium ionophore-stimulated murine blood for LTA4H inhibitor activity
Assay type: cell-based, CD-1 mice
CONDITION_SUMMARY: Mus musculus; murine blood diluted 1 in 15, A23187 stimulated; single determination or average; mark after value = form tested: ′ free base, ″ hydrochloride, ^ formate; read-out: IC50
pIC50: −log10 of the molar value. Structures can show the parent of a compound that is named as a salt.
Outcome: 1.0 for pIC50 of at least 7; 0.0 for anything lower.

Task item: Given the entry CC(C)(C)C(=O)NC1CCN(Cc2cc3ccc(Oc4nc5ncccc5s4)cc3o2)C1 (stereo not drawn) [Example 236, formate] , answer whether its pIC50 meets or surpasses 7.
Reply: 0.0

Task item: Given the entry c1cnc2nc(Oc3ccc4c(CNCCN5CCOCC5)coc4c3)sc2c1 [Example 306, formate] , answer whether its pIC50 meets or surpasses 7.
Reply: 1.0

Task item: Given the entry c1ccc(N2CCN(Cc3coc4cc(Oc5nc6ncccc6s5)ccc34)CC2)cc1 [Example 287, formate] , answer whether its pIC50 meets or surpasses 7.
Reply: 0.0

Task item: Given the entry `c1cnc2nc(Oc3ccc4c(CN5C[C@@H]6C[C@H]5CO6)coc4c3)sc2c1` , answer whether its pIC50 meets or surpasses 7.
Reply: 1.0

Task item: Given the entry `CC(=O)N1C[C@H]2C[C@@H]1CN2Cc1coc2cc(Oc3nc4ncccc4s3)ccc12` , answer whether its pIC50 meets or surpasses 7.
Reply: 1.0

Task item: Given the entry `c1ccc2c(c1)CN(Cc1coc3cc(Oc4nc5ncccc5s4)ccc13)C2` , answer whether its pIC50 meets or surpasses 7.
Reply: 0.0

Task item: Given the entry `c1cnc2sc(Oc3ccc4c(CN5CCOCC5)c[nH]c4c3)nc2n1` , answer whether its pIC50 meets or surpasses 7.
Reply: 0.0

Task item: Given the entry `CC(=O)N1C[C@H]2CC[C@@H](C1)N2Cc1coc2cc(Oc3nc4ncccc4s3)ccc12` , answer whether its pIC50 meets or surpasses 7.
Reply: 1.0

* * *

System: ex vivo calcium ionophore-stimulated LTB4 production in whole blood
TEST_DETAILS: Murine arachidonic acid-induced inflammation model: ex vivo stimulated LTB4 production in blood
Design: species or system Balb/c mice
CONDITION_SUMMARY: Mus musculus; 30 mg/kg oral gavage; blood diluted 1:1, A23187 stimulated ex vivo; percent inhibition of LTB4 production; read-out: % Inh. LTB4
Counter-ions that a name gives are not always drawn.
Reported inhibition at 30 mg/kg maps to class as: low = under 70%, middle = from 70% up to 80%, high = 80% and over

Task item: Textbook exercise: identify the category of the compound given here, `CC(=O)N[C@H]1C[C@@H]2C[C@H]1CN2Cc1cc2cc(Oc3nc4ncccc4s3)ccc2o1` , according to its measured value.
Reply: middle

Task item: Textbook exercise: identify the category of the compound given here, `CC(=O)N1CCC(N(Cc2coc3cc(Oc4nc5ncccc5s4)ccc23)C2CC2)CC1` , according to its measured value.
Reply: high

Task item: Textbook exercise: identify the category of the compound given here, `C[C@H]1COCCN1Cc1coc2cc(Oc3nc4ncccc4s3)ccc12` , according to its measured value.
Reply: high

Task item: Textbook exercise: identify the category of the compound given here, `CC(=O)N[C@H]1C[C@@H]2C[C@H]1CN2Cc1coc2cc(Oc3nc4ncccc4s3)ccc12` , according to its measured value.
Reply: high

Task item: Textbook exercise: identify the category of the compound given here, `CC(=O)N1CCCN(C(=O)c2coc3cc(Oc4nc5ncccc5s4)ccc23)CC1` , according to its measured value.
Reply: low

Task item: Textbook exercise: identify the category of the compound given here, `NC(=O)N1C[C@H]2C[C@@H]1CN2Cc1cc2cc(Oc3nc4ncccc4s3)ccc2o1` , according to its measured value.
Reply: low

Task item: Textbook exercise: identify the category of the compound given here, `O=C1CCCN1C1CCN(Cc2coc3cc(Oc4nc5ncccc5s4)ccc23)CC1` , according to its measured value.
Reply: high

Task item: Textbook exercise: identify the category of the compound given here, `CC(=O)N[C@H]1C[C@H]2CC[C@@H](C1)N2Cc1cc2ccc(Oc3nc4ncccc4s3)cc2s1` , according to its measured value.
Reply: high

Task item: Textbook exercise: identify the category of the compound given here, NC(=O)N1C[C@@H]2CC[C@H]1CN2Cc1coc2cc(Oc3nc4ncccc4s3)ccc12 [Example 241, formate] , according to its measured value.
Reply: middle

Task item: Textbook exercise: identify the category of the compound given here, `NC(=O)N1CC2CCC(C1)N2C(=O)c1coc2cc(Oc3nc4ncccc4s3)ccc12` , according to its measured value.
Reply: low

* * *

Would you mind telling me the reported IC50 of each entry?
TESTED_SYSTEM: recombinant human LTA4 hydrolase (rhLTA4H) (Homo sapiens)
Construct: made in house; host or cells: Spodoptera frugiperda (Sf-9) cells, baculovirus (pFastBac1)
TEST_DETAILS: Recombinant human LTA4 hydrolase assay for LTA4 hydrolase inhibitor activity
Assay type: biochemical
CONDITION_SUMMARY: rhLTA4H, LTB4 by immunoassay; single determination or average of two or more; mark after value = form tested: ′ free base, ″ hydrochloride, ^ formate; read-out: IC50
// note: answer is a bare numeric in nM

recombinant human LTA4 hydrolase (rhLTA4H) (Homo sapiens) data for c1cnc2nc(Oc3ccc4c(CN5CCN6CCCC6C5)coc4c3)sc2c1 (stereo not shown) [Example 326] ; its IC50: 21

recombinant human LTA4 hydrolase (rhLTA4H) (Homo sapiens) data for CC(=O)N[C@H]1C[C@@H]2C[C@H]1CN2Cc1cc2ccc(Oc3nc4ncccc4s3)cc2o1 [Example 189] ; its IC50: 3

recombinant human LTA4 hydrolase (rhLTA4H) (Homo sapiens) data for CS(=O)(=O)C1CCN(Cc2coc3cc(Oc4nc5ncccc5s4)ccc23)CC1 [Example 183] ; its IC50: 6

recombinant human LTA4 hydrolase (rhLTA4H) (Homo sapiens) data for O=C1CCCN1C1CCN(Cc2c[nH]c3cc(Oc4nc5ccccc5s4)ccc23)CC1 [Example 30] ; its IC50: 11

* * *

TESTED_SYSTEM: recombinant human LTA4 hydrolase (rhLTA4H) (Homo sapiens, UniProt P09960)
Construct: made in house; host or cells: Spodoptera frugiperda (Sf-9) cells, baculovirus (pFastBac1)
Sequence (P09960 whole entry): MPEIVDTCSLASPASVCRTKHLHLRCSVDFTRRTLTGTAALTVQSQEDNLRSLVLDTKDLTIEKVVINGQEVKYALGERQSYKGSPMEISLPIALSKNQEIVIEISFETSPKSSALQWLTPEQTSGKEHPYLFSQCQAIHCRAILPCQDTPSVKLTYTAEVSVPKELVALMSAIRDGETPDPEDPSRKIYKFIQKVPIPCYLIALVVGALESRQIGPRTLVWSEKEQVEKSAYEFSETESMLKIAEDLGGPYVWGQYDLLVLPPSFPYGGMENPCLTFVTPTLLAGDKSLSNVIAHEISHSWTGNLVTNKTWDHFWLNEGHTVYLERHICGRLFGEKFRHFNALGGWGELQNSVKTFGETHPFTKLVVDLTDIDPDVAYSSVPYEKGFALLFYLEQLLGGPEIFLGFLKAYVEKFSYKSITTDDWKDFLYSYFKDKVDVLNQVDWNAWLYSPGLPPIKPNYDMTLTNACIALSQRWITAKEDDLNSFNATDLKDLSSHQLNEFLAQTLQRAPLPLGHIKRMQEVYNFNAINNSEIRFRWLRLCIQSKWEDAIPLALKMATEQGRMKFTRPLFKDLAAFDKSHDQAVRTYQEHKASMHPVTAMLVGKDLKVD
TEST_DETAILS: Recombinant human LTA4 hydrolase assay for LTA4 hydrolase inhibitor activity
Type: biochemical
CONDITION_SUMMARY: rhLTA4H, LTB4 by immunoassay; single determination or average of two or more; mark after value = form tested: ′ free base, ″ hydrochloride, ^ formate; read-out: IC50
Counter-ions that a name gives are not always drawn.
MEASUREMENT_KIND: pIC50
pIC50 is defined as minus the log10 of a concentration measured in mol/L.

Just so you know, measured pIC50 for CC(=O)N1CCC2(CCN(Cc3cc4cc(Oc5nc6ncccc6s5)ccc4o3)CC2)CC1 [Example 167] came out at 7.06

Just so you know, measured pIC50 for CC(=O)N(CC(=O)O)[C@H]1C[C@H]2CC[C@@H](C1)N2Cc1c[nH]c2ccc(Oc3nc4ccccc4s3)cc12 [Example 49] came out at 7.89

Just so you know, measured pIC50 for CC(=O)N[C@@H]1C[C@H]2CC[C@@H](C1)N2Cc1cc2cc(Oc3nc4ncccc4s3)ccc2o1 [Example 104] came out at 8.00

Just so you know, measured pIC50 for Fc1cnc2nc(Oc3ccc4c(CN5CCOCC5)c[nH]c4c3)sc2c1 [Example 58] came out at 8.00

Just so you know, measured pIC50 for FC(F)(F)C1CCN(Cc2coc3cc(Oc4nc5ncccc5s4)ccc23)CC1 [Example 163] came out at 6.97

Just so you know, measured pIC50 for O=C(c1coc2cc(Oc3nc4ncccc4s3)ccc12)N1CCC(Oc2ncccn2)CC1 [Example 382] came out at 8.00

Just so you know, measured pIC50 for CCN(C(=O)c1coc2cc(Oc3nc4ncccc4s3)ccc12)C1CCCCC1 [Example 381] came out at 6.96

Just so you know, measured pIC50 for CC(=O)N[C@@H]1CCN(Cc2coc3cc(Oc4nc5ncccc5s4)ccc23)C1 [Example 324] came out at 8.10

Just so you know, measured pIC50 for Fc1ccc(CNCc2coc3cc(Oc4nc5ncccc5s4)ccc23)cc1 [Example 345] came out at 8.15

Just so you know, measured pIC50 for O=C(C1CCOC1)N1CC2CN(Cc3coc4cc(Oc5nc6ncccc6s5)ccc34)CC2C1 (centres unmarked) [Example 354] came out at 8.15

Just so you know, measured pIC50 for CCOC(=O)[C@@H]1CCCN(Cc2c[nH]c3cc(Oc4nc5ccccc5s4)ccc23)C1 [Example 144] came out at 7.11

Just so you know, measured pIC50 for O=C1CCCN1C1CCN(Cc2cc3ccc(Oc4nc5ncccc5s4)cc3o2)CC1 [Example 108, formate] came out at 6.84

Just so you know, measured pIC50 for NC(=O)N1C[C@H]2CC[C@@H](C1)N2Cc1cc2cc(Oc3nc4ccccc4s3)ccc2o1 [Example 173] came out at 6.73

Just so you know, measured pIC50 for CC(=O)NC1CCN(C(=O)c2coc3cc(Oc4nc5ncccc5s4)ccc23)CC1 [Example 368] came out at 7.59

Just so you know, measured pIC50 for NC(=O)[C@H]1CCCN(Cc2c[nH]c3cc(Oc4nc5ccccc5s4)ccc23)C1 [Example 27] came out at 7.72

Just so you know, measured pIC50 for NC(=O)N1C[C@H]2CC[C@@H](C1)N2Cc1coc2cc(Oc3nc4ncccc4s3)ccc12 [Example 210] came out at 8.30

Just so you know, measured pIC50 for CC(=O)N1C[C@@H]2C[C@H]1CN2Cc1cc2ncc(Oc3nc4ncccc4s3)cc2o1 [Example 274, formate] came out at 6.60
